Activity calls are given as the source filed them.
Quick record: Kd, Serine/threonine-protein kinase Nek1 (Homo sapiens).

Cc1cc(Nc2nc(N[C@@H](C)c3ncc(F)cn3)ncc2Cl)n[nH]1 > 30 µM (inactive)

Documented Kd of O=S(=O)(c1cccc2cnccc12)N1CCCNCC1 : > 30 µM (inactive)

Documented Kd of COc1cc2ncnc3c2cc1OCCCCCN(C)Cc1ccc(Br)cc1N3 : > 30 µM (inactive)

Documented Kd of CN(c1ncccc1CNc1nc(Nc2ccc3c(c2)CC(=O)N3)ncc1C(F)(F)F)S(C)(=O)=O : > 30 µM (inactive)

Documented Kd of CCc1cc2c(cc1N1CCC(N3CCOCC3)CC1)C(C)(C)c1[nH]c3cc(C#N)ccc3c1C2=O : > 30 µM (inactive)

Documented Kd of COCCN1CCN(Cc2ccc(-c3n[nH]c4c3C(=O)c3c(NC(=O)NN5CCOCC5)cccc3-4)cc2)CC1 : > 30 µM (inactive)

Documented Kd of CN1CCN(c2nc(C3=C(c4c[nH]c5ccccc45)C(=O)NC3=O)c3ccccc3n2)CC1 : > 30 µM (inactive)

Documented Kd of C#Cc1cccc(Nc2ncnc3cc4c(cc23)OCCOCCOCCO4)c1 : > 30 µM (inactive)

---

Quick record: Kd, Isoleucine--tRNA ligase, mitochondrial (Homo sapiens).
The source made the active and inactive calls.

Cn1cc(-c2[nH]c3cc(NC(=O)[C@H](N)C4CCCCC4)cc4c3c2C=NNC4=O)cn1 > 30 µM (inactive)
NC[C@@](O)(c1ccc(Cl)cc1)c1ccc(-c2cn[nH]c2)cc1 > 30 µM (inactive)
O[C@H]1CC[C@H](Nc2ncc3nc(Nc4c(F)cc(F)cc4F)n([C@H]4CCOC4)c3n2)CC1 > 30 µM (inactive)
COc1cc2ncnc3c2cc1OCCCCCN(C)Cc1ccc(Br)cc1N3 > 30 µM (inactive)
COc1cc(Nc2ncc(F)c(Nc3ccc4c(n3)N(COP(=O)(O)O)C(=O)C(C)(C)O4)n2)cc(OC)c1OC > 30 µM (inactive)
CNC(=O)c1cccc(-c2ccc3c(N4CCOC[C@@H]4C)nc(N4CCOC[C@@H]4C)nc3n2)c1 > 30 µM (inactive)

Result for O=C(NC[C@H](O)CO)c1ccncc1Nc1ccc(I)cc1F , tested on Isoleucine--tRNA ligase, mitochondrial (Homo sapiens), Kd: 0.011 µM

Result for CCN1CCN(Cc2ccc(Nc3ncc(F)c(-c4cc(F)c5nc(C)n(C(C)C)c5c4)n3)nc2)CC1 , tested on Isoleucine--tRNA ligase, mitochondrial (Homo sapiens), Kd: > 30 µM (inactive)

---

target: Tyrosine-protein kinase Lyn (Homo sapiens); note: in the data inactive means no Kd found up to 30 µM
Sequence (P07948 whole entry): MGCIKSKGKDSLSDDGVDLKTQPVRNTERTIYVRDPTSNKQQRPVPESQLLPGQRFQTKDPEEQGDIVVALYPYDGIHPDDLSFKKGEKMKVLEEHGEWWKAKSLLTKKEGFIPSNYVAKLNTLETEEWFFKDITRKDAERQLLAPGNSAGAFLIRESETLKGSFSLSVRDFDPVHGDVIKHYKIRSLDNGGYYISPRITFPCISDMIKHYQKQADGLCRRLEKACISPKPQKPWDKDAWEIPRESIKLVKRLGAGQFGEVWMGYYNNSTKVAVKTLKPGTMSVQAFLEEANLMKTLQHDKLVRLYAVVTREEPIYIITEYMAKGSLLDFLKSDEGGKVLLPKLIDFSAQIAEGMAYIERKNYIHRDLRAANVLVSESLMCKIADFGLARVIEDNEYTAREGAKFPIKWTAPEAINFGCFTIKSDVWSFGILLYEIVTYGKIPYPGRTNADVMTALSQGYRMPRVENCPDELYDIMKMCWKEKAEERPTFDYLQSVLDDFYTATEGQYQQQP
Calls of active or inactive are those of the source.
// one of true = active, false = inactive, no free text

// known answers, use as guide
molecule	label_value
CC(C)CC(=O)Nc1[nH]nc2c1CN(C(=O)C1CCN(C)CC1)C2(C)C	false
CNC(=O)c1cc(COc2nnc(Nc3ccc(Cl)cc3)c3ccoc23)ccn1	false
Cc1ccc(C(=O)Nc2ccc(Oc3cc4cnn(C)c4cc3-c3cn[nH]c3)c(F)c2)c(=O)n1-c1ccc(F)cc1	false
O=S(=O)(c1cccc2c(O)nccc12)N1CCCNCC1 [HYDROXYFASUDIL]	false
COc1cccc2cc(-c3nc([C@H]4CC[C@H](C(=O)O)CC4)n4ncnc(N)c34)[nH]c12	false

Ask | Test call for this molecule, please: O=C(NOC[C@H](O)CO)c1ccc(F)c(F)c1Nc1ccc(I)cc1F
Reply | false

Ask | Test call for this molecule, please: COCCN1CCN(Cc2ccc(-c3n[nH]c4c3C(=O)c3c(NC(=O)NN5CCOCC5)cccc3-4)cc2)CC1
Reply | false

Ask | Test call for this molecule, please: O=C(NC[C@H](O)CO)c1ccncc1Nc1ccc(I)cc1F
Reply | false

Ask | Test call for this molecule, please: CCN(CCCOc1ccc2c(Nc3cc(CC(=O)Nc4cccc(F)c4)n[nH]3)ncnc2c1)CCOP(=O)(O)O
Reply | true

Ask | Test call for this molecule, please: COc1cc(Nc2ncc(F)c(Nc3ccc4c(n3)N(COP(=O)(O)O)C(=O)C(C)(C)O4)n2)cc(OC)c1OC
Reply | false

Ask | Test call for this molecule, please: Cc1cc(-c2cc(OC(=O)c3ccccc3)ccc2Cl)cc2nnc(Nc3ccc(OCCN4CCCC4)cc3)nc12
Reply | false

---

biological target: Proto-oncogene tyrosine-protein kinase Src (Homo sapiens); note: in the data inactive means no Kd found up to 30 µM
Sequence (P12931 2-536 limits assumed): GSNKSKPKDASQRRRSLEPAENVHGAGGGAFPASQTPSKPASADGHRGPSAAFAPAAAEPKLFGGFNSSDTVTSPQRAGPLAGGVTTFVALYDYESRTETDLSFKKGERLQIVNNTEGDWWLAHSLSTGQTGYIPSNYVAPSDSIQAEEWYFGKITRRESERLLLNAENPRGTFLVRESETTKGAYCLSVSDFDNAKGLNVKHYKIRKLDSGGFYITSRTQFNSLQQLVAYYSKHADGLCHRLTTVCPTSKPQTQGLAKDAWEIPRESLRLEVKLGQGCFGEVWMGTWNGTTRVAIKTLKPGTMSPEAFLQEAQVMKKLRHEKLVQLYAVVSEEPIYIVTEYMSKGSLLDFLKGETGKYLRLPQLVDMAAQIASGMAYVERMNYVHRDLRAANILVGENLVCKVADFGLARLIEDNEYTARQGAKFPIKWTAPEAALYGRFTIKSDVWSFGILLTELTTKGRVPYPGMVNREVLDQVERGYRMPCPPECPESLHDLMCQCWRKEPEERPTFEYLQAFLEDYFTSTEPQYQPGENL
Calls of active or inactive are those of the source.
Kd listing for selected molecules.

molecule	Kd
Cc1cc(Nc2nc(N[C@@H](C)c3ncc(F)cn3)ncc2Cl)n[nH]1 [AZD-1480]	> 30 µM (inactive)
C=CC(=O)Nc1cccc(Nc2nc(Nc3ccc(N4CCN(C(C)=O)CC4)cc3OC)ncc2C(F)(F)F)c1 [ROCILETINIB]	> 30 µM (inactive)

Result for CCc1cc2c(cc1N1CCC(N3CCOCC3)CC1)C(C)(C)c1[nH]c3cc(C#N)ccc3c1C2=O [ALECTINIB] , tested on Proto-oncogene tyrosine-protein kinase Src (Homo sapiens), Kd: > 30 µM (inactive)

Result for NC(=O)c1ccc(N(C(N)=O)c2c(F)cccc2F)nc1-c1ccc(F)cc1F [VX-702] , tested on Proto-oncogene tyrosine-protein kinase Src (Homo sapiens), Kd: > 30 µM (inactive)

---

molecular target: Mitogen-activated protein kinase 3 (Homo sapiens, UniProt P27361); note: in the data inactive means no Kd found up to 30 µM
Sequence (P27361 whole entry): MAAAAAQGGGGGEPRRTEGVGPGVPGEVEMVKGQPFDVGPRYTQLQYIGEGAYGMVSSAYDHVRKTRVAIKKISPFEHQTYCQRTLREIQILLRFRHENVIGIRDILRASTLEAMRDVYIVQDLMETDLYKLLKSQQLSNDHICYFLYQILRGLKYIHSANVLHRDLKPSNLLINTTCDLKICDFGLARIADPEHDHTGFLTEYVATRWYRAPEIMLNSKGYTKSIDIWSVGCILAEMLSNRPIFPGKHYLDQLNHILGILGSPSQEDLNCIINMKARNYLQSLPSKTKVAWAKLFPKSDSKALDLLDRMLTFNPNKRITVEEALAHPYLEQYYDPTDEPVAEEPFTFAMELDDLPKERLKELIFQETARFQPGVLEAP
The source made the active and inactive calls.
Kd listing for selected compounds.

Answered cases to consult:
Cn1c(=O)c(F)c(Nc2ccc(I)cc2F)c2c(=O)n(C[C@@H](O)CO)cnc21 > 30 µM (inactive)
Cc1ccc(C(=O)Nc2ccc(Oc3cc4cnn(C)c4cc3-c3cn[nH]c3)c(F)c2)c(=O)n1-c1ccc(F)cc1 > 30 µM (inactive)
CCN1CCN(Cc2ccc(Nc3ncc(F)c(-c4cc(F)c5nc(C)n(C(C)C)c5c4)n3)nc2)CC1 > 30 µM (inactive)

Next:
Result for CNC(=O)c1ccc(Nc2ncc(C(F)(F)F)c(NCc3nccnc3N(C)S(C)(=O)=O)n2)cc1 , tested on Mitogen-activated protein kinase 3 (Homo sapiens, UniProt P27361), Kd: > 30 µM (inactive)

---

molecular target: Ribosomal protein S6 kinase alpha-1 (Homo sapiens, UniProt Q15418); note: in the data inactive means no Kd found up to 30 µM
Sequence (Q15418 whole entry): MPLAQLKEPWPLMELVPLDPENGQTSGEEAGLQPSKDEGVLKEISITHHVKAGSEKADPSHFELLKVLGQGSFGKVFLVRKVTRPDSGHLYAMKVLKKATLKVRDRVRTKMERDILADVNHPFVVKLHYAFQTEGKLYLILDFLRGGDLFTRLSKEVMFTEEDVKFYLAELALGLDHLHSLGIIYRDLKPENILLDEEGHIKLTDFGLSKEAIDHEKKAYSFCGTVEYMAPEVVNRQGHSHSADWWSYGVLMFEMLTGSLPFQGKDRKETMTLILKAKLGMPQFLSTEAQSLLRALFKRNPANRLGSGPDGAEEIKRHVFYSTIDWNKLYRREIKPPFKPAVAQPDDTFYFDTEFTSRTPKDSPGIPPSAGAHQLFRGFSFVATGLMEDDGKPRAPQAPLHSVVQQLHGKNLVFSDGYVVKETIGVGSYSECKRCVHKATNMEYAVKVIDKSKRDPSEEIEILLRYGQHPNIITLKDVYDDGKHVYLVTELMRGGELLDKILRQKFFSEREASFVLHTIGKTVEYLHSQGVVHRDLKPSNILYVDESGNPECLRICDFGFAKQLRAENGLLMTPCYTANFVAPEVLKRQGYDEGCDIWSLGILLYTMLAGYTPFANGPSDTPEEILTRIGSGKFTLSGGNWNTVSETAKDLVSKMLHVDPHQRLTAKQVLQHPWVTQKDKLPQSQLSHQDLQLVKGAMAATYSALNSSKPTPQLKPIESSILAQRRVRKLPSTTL
The source made the active and inactive calls.
// one of True for active, False for inactive, no free text

// known answers, use as guide
compound	label_value
CCN(CCCOc1ccc2c(Nc3cc(CC(=O)Nc4cccc(F)c4)n[nH]3)ncnc2c1)CCOP(=O)(O)O	False
Cn1c(=O)c(F)c(Nc2ccc(I)cc2F)c2c(=O)n(C[C@@H](O)CO)cnc21	False
C#Cc1cccc(Nc2ncnc3cc4c(cc23)OCCOCCOCCO4)c1	False
O=C(Nc1ccc(OC(F)(F)F)cc1)c1sccc1NCc1ccnc2ccccc12	False
O=C(NC[C@H](O)CO)c1ccncc1Nc1ccc(I)cc1F	False

Ask | Test call for this compound, please: NC(=O)c1ccc(N(C(N)=O)c2c(F)cccc2F)nc1-c1ccc(F)cc1F
Reply | False

---

molecular target: Mitogen-activated protein kinase 10 (Homo sapiens, UniProt P53779); note: in the data inactive means no Kd found up to 30 µM
Sequence (P53779 whole entry): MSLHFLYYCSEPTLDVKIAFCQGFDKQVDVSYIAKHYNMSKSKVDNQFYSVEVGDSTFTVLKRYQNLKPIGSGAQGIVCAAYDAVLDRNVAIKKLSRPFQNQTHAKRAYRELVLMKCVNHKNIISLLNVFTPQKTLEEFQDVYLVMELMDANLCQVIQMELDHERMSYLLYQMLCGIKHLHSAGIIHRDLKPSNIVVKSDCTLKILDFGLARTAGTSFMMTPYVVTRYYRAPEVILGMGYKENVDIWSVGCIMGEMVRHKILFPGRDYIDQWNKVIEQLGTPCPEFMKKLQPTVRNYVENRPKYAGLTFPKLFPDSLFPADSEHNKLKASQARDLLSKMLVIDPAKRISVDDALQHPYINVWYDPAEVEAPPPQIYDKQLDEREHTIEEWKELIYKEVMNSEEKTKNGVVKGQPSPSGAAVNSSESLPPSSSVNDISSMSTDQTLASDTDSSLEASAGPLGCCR
Active and inactive are the calls of the source.
// one of active, inactive, no free text

// known answers, use as guide
compound	label_value
COc1ccc(-c2ccc3ncc4c(c3c2)n(-c2ccc(N3CCNCC3)c(C(F)(F)F)c2)c(=O)n4C)cn1 [BGT-226 FREE BASE]	inactive
COc1cc(F)c(F)c(Nc2ccc(I)cc2F)c1NS(=O)(=O)C1(C[C@H](O)CO)CC1	active
Cc1cc(Nc2nc(N[C@@H](C)c3ncc(F)cn3)ncc2Cl)n[nH]1	inactive

Ask | Test call for this compound, please: CCc1cc2c(cc1N1CCC(N3CCOCC3)CC1)C(C)(C)c1[nH]c3cc(C#N)ccc3c1C2=O
Reply | inactive

Ask | Test call for this compound, please: FC(F)(F)c1ccc(CNc2ccc(Cc3c[nH]c4ncc(Cl)cc34)cn2)cn1
Reply | inactive

Ask | Test call for this compound, please: COc1ccc2c(OCc3nnc4ccc(-c5ccccc5)nn34)ccnc2c1
Reply | inactive

Ask | Test call for this compound, please: c1cc(OCCN2CCCCC2)cc(-c2n[nH]c3ccc(-c4nc[nH]n4)cc23)c1
Reply | active

---

target: Serine/threonine-protein kinase ICK (Homo sapiens); note: in the data inactive means no Kd found up to 30 µM
Sequence (Q9UPZ9 whole entry): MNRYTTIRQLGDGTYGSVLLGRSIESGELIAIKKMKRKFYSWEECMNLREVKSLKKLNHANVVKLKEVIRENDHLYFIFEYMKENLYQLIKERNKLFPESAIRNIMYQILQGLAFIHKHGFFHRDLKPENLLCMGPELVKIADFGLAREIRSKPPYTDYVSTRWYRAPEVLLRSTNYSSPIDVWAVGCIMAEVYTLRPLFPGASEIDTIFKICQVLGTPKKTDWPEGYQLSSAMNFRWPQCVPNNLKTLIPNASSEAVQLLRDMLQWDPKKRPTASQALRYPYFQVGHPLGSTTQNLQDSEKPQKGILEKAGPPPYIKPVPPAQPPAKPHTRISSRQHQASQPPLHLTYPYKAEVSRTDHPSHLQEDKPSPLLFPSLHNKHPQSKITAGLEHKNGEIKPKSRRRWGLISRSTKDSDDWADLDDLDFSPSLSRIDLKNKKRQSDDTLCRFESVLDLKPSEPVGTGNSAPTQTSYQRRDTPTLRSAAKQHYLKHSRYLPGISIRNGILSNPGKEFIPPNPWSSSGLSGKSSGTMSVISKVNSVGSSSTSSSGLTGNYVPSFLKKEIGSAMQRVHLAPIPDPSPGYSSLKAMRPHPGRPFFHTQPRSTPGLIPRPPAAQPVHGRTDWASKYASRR
Activity calls are given as the source filed them.
// one of 1.0 = active, 0.0 = inactive, no free text

compound	label_value
Cc1cc(-c2cc(OC(=O)c3ccccc3)ccc2Cl)cc2nnc(Nc3ccc(OCCN4CCCC4)cc3)nc12	0.0
CC(C)(O)CC(=O)NCCn1ccc2ncnc(Nc3ccc(Oc4cccc(C(F)(F)F)c4)c(Cl)c3)c21	0.0
COc1cc2ncnc(Nc3ccc(O)cc3)c2cc1OC	0.0
Cc1c(Cn2c(C)nc3c(C(=O)O)cc(N4CCOCC4)cc32)cccc1C(F)(F)F	0.0

Ask | Test call for this compound, please: O=S(=O)(c1cccc2c(O)nccc12)N1CCCNCC1 [HYDROXYFASUDIL]
Reply | 0.0

Ask | Test call for this compound, please: COCCN1CCN(Cc2ccc(-c3n[nH]c4c3C(=O)c3c(NC(=O)NN5CCOCC5)cccc3-4)cc2)CC1
Reply | 1.0

Ask | Test call for this compound, please: CNC(=O)c1cccc(-c2ccc3c(N4CCOC[C@@H]4C)nc(N4CCOC[C@@H]4C)nc3n2)c1
Reply | 0.0

Ask | Test call for this compound, please: COc1ccc(-c2ccc3ncc4c(c3c2)n(-c2ccc(N3CCNCC3)c(C(F)(F)F)c2)c(=O)n4C)cn1 [BGT-226 FREE BASE]
Reply | 0.0

Ask | Test call for this compound, please: Cn1cc(-c2[nH]c3cc(NC(=O)[C@H](N)C4CCCCC4)cc4c3c2C=NNC4=O)cn1
Reply | 0.0

Ask | Test call for this compound, please: COc1cc2nccc(Oc3ccc(NC(=O)C4(C(=O)Nc5ccc(F)cc5)CC4)cc3)c2cc1OC [CABOZANTINIB]
Reply | 0.0

Ask | Test call for this compound, please: CC1(COc2ccc3c(c2)ncn3-c2ccc3cccc(N4CCC(N)CC4)c3n2)COC1
Reply | 0.0

Ask | Test call for this compound, please: COc1ccc2c(OCc3nnc4ccc(-c5ccccc5)nn34)ccnc2c1
Reply | 0.0

Ask | Test call for this compound, please: COc1cc2ncnc3c2cc1OCCCCCN(C)Cc1ccc(Br)cc1N3
Reply | 0.0

Ask | Test call for this compound, please: C=CC(=O)Nc1cc(Nc2nccc(-c3cn(C)c4ccccc34)n2)c(OC)cc1N(C)CCN(C)C
Reply | 0.0

Ask | Test call for this compound, please: CN(c1ncccc1CNc1nc(Nc2ccc3c(c2)CC(=O)N3)ncc1C(F)(F)F)S(C)(=O)=O
Reply | 0.0

Ask | Test call for this compound, please: O=C(Nc1ccc(OC(F)(F)F)cc1)c1sccc1NCc1ccnc2ccccc12
Reply | 0.0
